Cited source for all entries: the supplement of paper PMC10567573

B1: TNXB (parent)
chain: FSEIRETSAKVNWMPPPSRADSFK

- Variants of: B1
- protocolDetails: protein stability index of a GFP-peptide fusion (GPS, HEK-293T) (PSI 1-6); higher = more stable;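 note: lentivirally expressed fusions sorted by FACS into six bins by GFP to DsRed ratio, PSI derived from sequencing read proportions per bin multiplied by bin number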
- protocolConditions: c terminus: a fixed tail appended
valueType: protein stability index

>>> print(df.to_string())
    variantdesignation  resultnumber
 0                D21H          3.13
 1                 F1C          3.69
 2                 I4V          3.56
 3                 R5F          2.86
 4                 S2Q          3.97
 5                 E3V          2.44
 6                 E6F          2.22
 7                N12S          3.38
 8                 A9L          3.41
 9                N12A          2.14
10                 S2Y             3
11                R19V          3.38
12                S22R          3.95
13                 S2V           1.9
14                K24L          2.42
15                 R5G          3.22
16                V11D          4.12
17                S22W          2.62
18                 T7K          3.97
19                V11E             4
20                W13A          4.11
21                 E3C          1.77
22                P17T          3.99
23                D21I          3.05
24                 F1R          4.99
25                 E6W             2
26                N12Q          3.04
27                A20H          3.45
28                P15K          3.33
29                W13M          3.98
30                F23G          3.24
31                K24F          2.47
32                P17A          3.65
33                 R5H          3.79
34                 R5A          3.96
35                P16Q          3.23
36                 S8N          3.73
37                K10L          3.29
38                 I4Q          3.89
39                 I4F           2.9
40                K10I          3.06
41                 I4G          4.34
42                M14Q          3.92
43                V11S          3.87
44                M14R          4.26
45                W13D           4.8
46                D21V          3.28
47                M14V          2.96
48                S22G          2.97
49                V11K           4.2
50                 I4D          3.99
51                 E6L          2.28
52                 I4T          4.29
53                 T7D          3.86
54                 E3R          3.13
55                 S8A           3.5
56                W13T          4.03
57                N12H          2.71
58                P16I          3.15
59                 F1Q          4.48
60                A20F          2.73
61                 F1T          4.07
62                 T7H           3.1
63                P15F          2.46
64                N12E          3.46
65                P15N          3.12
66                P17S          3.44
67                 E6K             3
68                F23I           3.5
69                 S8M          3.15
70                 A9M          3.32
71                P15E          3.49
72                R19S          3.73
73                P15W          2.56
74                 R5V          3.52
75                D21Y          3.01
76                V11Y           2.7
77                P15A          3.51
78                 A9N          2.95
79                 F1K           4.4
80                P17F          3.19
81                K24Q          3.33
82                P16W          1.82
83                 E6R          2.89
84                 A9Q          3.72
85                V11I          3.77
86                 R5W          2.02
87                A20W          2.92
88                 A9I          2.83
89                M14D          3.91
90                S18D          3.52
